# targetOrTestSystem: T1, Recombinant human CD40L (human, UniProt P29965 108-261, limits assumed)
# T1 construct: also called CD40 ligand
# T1 sequence (looked up): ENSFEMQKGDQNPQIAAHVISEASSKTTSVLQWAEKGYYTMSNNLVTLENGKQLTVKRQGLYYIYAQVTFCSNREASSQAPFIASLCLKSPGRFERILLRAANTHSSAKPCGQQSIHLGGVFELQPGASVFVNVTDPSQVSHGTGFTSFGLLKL
# assayOverview: CD40L receptor binding assay: dAb inhibits CD40L (3 ng/ml) binding to coated CD40/Fc
assayEndpoint: pIC50
Kindly note that pIC50 refers to -log10 of the concentration in mol/L and answer with the value alone.

The binder listed as DOM-31 (other, VH dAb) VH: EVQLLESGGGLVQPGGSLRLSCAASGFTFEEYQMAWVRQAPGKGLEWVSTISDDGSSTYYADSVKGRFTISRDNSKNTLYLQMNSLRAEDTAVYYCAKPDLYFDYWGQGTLVTVSS shows pIC50 equal to 8.10

The binder listed as DOM-4 (other, VH dAb) VH: EVQLLESGGGLVQPGGSLRLSCAASGFTFDNYEMTWVRQAPGKGLEWVSSITSDGTSTYYADSVKGRFTISRDNSKNTLYLQMNSLRAEDTAVYYCAKPNPPFDYWGQGTLVTVSS shows pIC50 equal to 7.00

The binder listed as DOM-8 (other, Vk dAb) VL: DIQMTQSPSSLSASVGDRVTITCRASQFIDTSLEWYQQKPGKAPKLLIYDGSHLQSGVPSRFSGSGSGTDFTLTISSLQPEDLATYYCQQYWVLPLTFGQGTKVEIKR shows pIC50 equal to 6.05

The binder listed as DOM-7 (other, VH dAb) VH: EVQLLESGGGLVQPGGSLRLSCAASGFTFNLYEMTWVRQAPGKGLEWVSSITSDGVSTYYADSVKGRFTISRDNSKNTLYLQMNSLRAEDTAVYYCAKAGVIFDYWGQGTLVTVSS shows pIC50 equal to 5.82
